Experimental System: C3b (Homo sapiens)
Construct: the α’NT, MG6^α−8, anchor, and C-terminal complement (CTC) domains of the α-chain that are all shared between C3c and C3b; purchased Complement Technology (Tyler, TX, USA)
Sequence (P01024 23-667 limits assumed): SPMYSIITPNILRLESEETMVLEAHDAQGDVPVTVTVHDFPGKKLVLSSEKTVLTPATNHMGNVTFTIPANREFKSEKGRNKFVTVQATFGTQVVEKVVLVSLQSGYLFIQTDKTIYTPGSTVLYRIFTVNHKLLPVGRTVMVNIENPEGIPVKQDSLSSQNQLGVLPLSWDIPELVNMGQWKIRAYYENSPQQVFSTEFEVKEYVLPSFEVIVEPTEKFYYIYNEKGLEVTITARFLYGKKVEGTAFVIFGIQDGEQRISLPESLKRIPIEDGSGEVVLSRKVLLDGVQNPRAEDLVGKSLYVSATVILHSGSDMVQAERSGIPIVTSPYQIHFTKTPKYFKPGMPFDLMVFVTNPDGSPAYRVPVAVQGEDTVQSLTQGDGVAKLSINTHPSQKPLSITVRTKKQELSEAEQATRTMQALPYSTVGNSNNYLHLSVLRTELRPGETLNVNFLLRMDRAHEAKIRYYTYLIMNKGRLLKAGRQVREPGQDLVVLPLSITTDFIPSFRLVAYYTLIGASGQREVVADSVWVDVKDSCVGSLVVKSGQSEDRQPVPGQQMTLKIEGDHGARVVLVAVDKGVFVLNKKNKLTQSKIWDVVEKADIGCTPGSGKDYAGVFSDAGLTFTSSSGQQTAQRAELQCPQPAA
Sequence (P01024 749-1663 limits assumed): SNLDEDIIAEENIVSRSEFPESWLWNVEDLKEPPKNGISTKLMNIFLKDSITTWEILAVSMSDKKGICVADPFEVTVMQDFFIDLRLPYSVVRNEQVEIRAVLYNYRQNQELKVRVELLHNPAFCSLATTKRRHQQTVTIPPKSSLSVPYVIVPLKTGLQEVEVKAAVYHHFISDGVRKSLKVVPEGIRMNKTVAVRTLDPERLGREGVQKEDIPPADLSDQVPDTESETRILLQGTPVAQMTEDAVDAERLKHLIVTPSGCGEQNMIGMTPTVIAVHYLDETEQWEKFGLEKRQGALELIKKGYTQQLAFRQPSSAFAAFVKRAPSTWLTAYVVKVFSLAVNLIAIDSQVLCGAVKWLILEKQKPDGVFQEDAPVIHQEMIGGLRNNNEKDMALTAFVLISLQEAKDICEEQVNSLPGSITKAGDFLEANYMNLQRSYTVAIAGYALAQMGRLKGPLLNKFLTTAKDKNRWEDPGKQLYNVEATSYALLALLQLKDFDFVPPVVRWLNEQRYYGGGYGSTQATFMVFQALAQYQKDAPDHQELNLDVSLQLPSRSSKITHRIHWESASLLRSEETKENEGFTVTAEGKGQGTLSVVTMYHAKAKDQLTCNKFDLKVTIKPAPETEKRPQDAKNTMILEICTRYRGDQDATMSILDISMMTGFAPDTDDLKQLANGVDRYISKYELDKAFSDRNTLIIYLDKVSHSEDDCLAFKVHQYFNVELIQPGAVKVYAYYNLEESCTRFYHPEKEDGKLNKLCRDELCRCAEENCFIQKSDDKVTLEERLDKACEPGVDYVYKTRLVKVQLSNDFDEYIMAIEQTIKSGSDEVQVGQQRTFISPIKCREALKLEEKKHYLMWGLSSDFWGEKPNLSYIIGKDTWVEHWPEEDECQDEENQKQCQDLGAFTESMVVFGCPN
Protocol Notes: SPR kinetic binding studies on immobilized C3b
Condition Set: pH 7.4, read-out: ka, Dataset 2
Measure: kon (M⁻¹ s⁻¹)
Just the number in M⁻¹ s⁻¹, nothing appended.

{"Molecule": "CC[C@H](C)[C@H](NC(=O)[C@H](N)Cc1ccc(O)cc1)C(=O)N[C@H]1CSSC[C@@H](C(=O)N(C)[C@H](C(N)=O)[C@@H](C)CC)NC(=O)[C@H](CCCNC(N)=O)NC(=O)[C@H](Cc2c[nH]cn2)NC(=O)[C@H](C)NC(=O)CN(C)C(=O)[C@H](Cc2c[nH]c3ccccc23)NC(=O)[C@H](CC(=O)O)NC(=O)[C@H](CCC(N)=O)NC(=O)[C@H](Cc2cn(C)c3ccccc23)NC(=O)[C@H](C(C)C)NC1=O [Cp40 R12Cit]", "kon [M⁻¹ s⁻¹]": 670000}

Okay, now this molecule:
For this molecule ( CC[C@H](C)[C@H](NC(=O)[C@H](N)Cc1ccc(O)cc1)C(=O)N[C@H]1CSSC[C@@H](C(=O)N(C)[C@H](C(N)=O)[C@@H](C)CC)NC(=O)[C@H](CCCNC(=N)N)NC(=O)[C@H](Cc2c[nH]cn2)NC(=O)[C@H](C)NC(=O)CN(C)C(=O)[C@H](Cc2c[nH]c3ccccc23)NC(=O)[C@H](CC(=O)O)NC(=O)[C@H](CCC(N)=O)NC(=O)[C@H](Cc2c[nH]c3ccccc23)NC(=O)[C@H](C(C)C)NC1=O [Cp40 (1MeW)5 W] ), measured kon is 150000
